System: Strep. 641848-C
Assay: Human bacteria MIC, nutrient agar with chocolated horse blood (Table 3)
Format: cell-based
Conditions: Strep. 641848-C; nutrient agar 5% chocolated horse blood, 18 hours 37° C.; read-out: MIC
Listed here are compounds together with their documented MIC.
measure.name: MIC (µg/mL)

compound="C/C(=C\\C(=O)OCc1cccc([N+](=O)[O-])c1C)CC1OCC(CC2OC2C(C)C(C)O)C(O)C1O (stereo not shown) [Example 8, 2-methyl-3-nitrobenzyl monate A]" measure_name=MIC quantitative_result=0.5
compound="C/C(=C\\C(=O)OC(C)c1ccc([N+](=O)[O-])cc1)CC1OCC(CC2OC2C(C)C(C)O)C(O)C1O (stereo not shown) [Example 4, 1-(p-nitrophenyl)ethyl monate A]" measure_name=MIC quantitative_result=1
compound="C/C(=C\\C(=O)OC(C)c1cccc([N+](=O)[O-])c1)CC1OCC(CC2OC2C(C)C(C)O)C(O)C1O (stereo not shown) [Example 3, 1-(m-nitrophenyl)ethyl monate A]" measure_name=MIC quantitative_result=2.5
compound="C/C(=C\\C(=O)OCc1ccc([N+](=O)[O-])cc1Cl)CC1OCC(CC2OC2C(C)C(C)O)C(O)C1O (stereo not shown) [Example 11, 2-chloro-4-nitrobenzyl monate A]" measure_name=MIC quantitative_result=1

* * *

Listed here are compounds together with their documented MIC.
Tested on: E. Coli NCTC 10418
Assay: Human bacteria MIC, nutrient agar with chocolated horse blood (Table 3)
Format: cell-based
Settings: Escherichia coli, NCTC10418, 18 h
measure.name: MIC

compound="C/C(=C\\C(=O)OCc1ccccc1[N+](=O)[O-])CC1OCC(CC2OC2C(C)C(C)O)C(O)C1O (stereo not drawn) [C, O--nitrobenzyl monate A, reference compound]" measure_name=MIC result="> 100 µg/mL"
compound="C/C(=C\\C(=O)OCc1cc([N+](=O)[O-])cc([N+](=O)[O-])c1C)CC1OCC(CC2OC2C(C)C(C)O)C(O)C1O (stereo not drawn) [Example 7, 3,5-dinitro-2-methylbenzyl monate A]" measure_name=MIC result="> 100 µg/mL"
compound="C/C(=C\\C(=O)OCc1cc([N+](=O)[O-])cc([N+](=O)[O-])c1)CC1OCC(CC2OC2C(C)C(C)O)C(O)C1O (stereo not drawn) [Example 6, 3,5-dinitrobenzyl monate A]" measure_name=MIC result="100 µg/mL"
compound="C/C(=C\\C(=O)OCc1ccc([N+](=O)[O-])cc1Cl)CC1OCC(CC2OC2C(C)C(C)O)C(O)C1O (stereo not drawn) [Example 11, 2-chloro-4-nitrobenzyl monate A]" measure_name=MIC result="> 100 µg/mL"
compound="C/C(=C\\C(=O)OCc1ccc([N+](=O)[O-])c([N+](=O)[O-])c1)CC1OCC(CC2OC2C(C)C(C)O)C(O)C1O (stereo not drawn) [Example 9, 3,4-dinitrobenzyl monate A]" measure_name=MIC result="50 µg/mL"
compound="C/C(=C\\C(=O)OCc1ccc([N+](=O)[O-])cc1[N+](=O)[O-])CC1OCC(CC2OC2C(C)C(C)O)C(O)C1O (stereo not drawn) [Example 10, 2,4-dinitrobenzyl monate A]" measure_name=MIC result="> 100 µg/mL"

* * *

Test system: M. hyorhinis ATCC 23234
Experiment: Anti-mycoplasmal MIC in vitro, Friis broth agarose (Table 1)
Format: cell-based
Conditions: Mesomycoplasma hyorhinis, ATCC23234, 144 h
measure.name: MIC

molecule="C/C(=C\\C(=O)OCc1cc([N+](=O)[O-])cc([N+](=O)[O-])c1)CC1OCC(CC2OC2C(C)C(C)O)C(O)C1O (stereo not drawn) [Example 6, 3,5-dinitrobenzyl monate A]" assayed_system="M. hyorhinis ATCC 23234" result="0.025 µg/mL"
molecule="C/C(=C\\C(=O)OCc1ccc([N+](=O)[O-])c([N+](=O)[O-])c1)CC1OCC(CC2OC2C(C)C(C)O)C(O)C1O (stereo not drawn) [Example 9, 3,4-dinitrobenzyl monate A]" assayed_system="M. hyorhinis ATCC 23234" result="0.25 µg/mL"
molecule="C/C(=C\\C(=O)OCc1cccc([N+](=O)[O-])c1)CC1OCC(C/C=C/C(C)C(C)O)C(O)C1O (stereo not drawn) [Example 5, m-nitrobenzyl monate C]" assayed_system="M. hyorhinis ATCC 23234" result="0.25 µg/mL"
molecule="C/C(=C\\C(=O)OCc1ccc([N+](=O)[O-])cc1[N+](=O)[O-])CC1OCC(CC2OC2C(C)C(C)O)C(O)C1O (stereo not drawn) [Example 10, 2,4-dinitrobenzyl monate A]" assayed_system="M. hyorhinis ATCC 23234" result="0.5 µg/mL"
molecule="C/C(=C\\C(=O)OCc1ccc([N+](=O)[O-])cc1)CC1OCC(CC2OC2C(C)C(C)O)C(O)C1O (stereo not drawn) [Example 1, p-nitrobenzyl monate A]" assayed_system="M. hyorhinis ATCC 23234" result="0.05 µg/mL"
molecule="C/C(=C\\C(=O)OCc1ccc([N+](=O)[O-])cc1Cl)CC1OCC(CC2OC2C(C)C(C)O)C(O)C1O (stereo not drawn) [Example 11, 2-chloro-4-nitrobenzyl monate A]" assayed_system="M. hyorhinis ATCC 23234" result="0.5 µg/mL"

Reference source for all entries: patent US4436751A
